src = paper PMC12040169

- test: in vitro
- measurement_conditions: human, hela cells, % viability
# Lookup of reported viability at 28.5 h, 10 µM keyed by entry
Kindly write the number and append the unit.

Answered examples (5):
# compound, result
measured = [
    ("Cc1cccn2cc(C(=O)NC(C)CN3CCCC3)nc12 (stereo not drawn)", "99.6%"),
    ("Cc1n[nH]c(C)c1Sc1ccccc1/N=C/c1ccccc1O", "93%"),
    ("CC(CN(C)C)C(=O)c1cn(C)c2ccccc12 (stereo not drawn)", "102%"),
    ("Cc1c(NC(=O)CN2CCCC(C)C2)ccc2nsnc12 (stereo not drawn)", "97.4%"),
    ("Cc1c(-c2ccc(N(C)C)nc2)c(C(F)(F)F)nn1C", "83.5%"),
]

Task: Look up viability at 28.5 h, 10 µM of O=C(NC1CC1)[C@H]1CN2CCC1C[C@@H]2Cn1cc(-c2cccc(O)c2)nn1 (stereo partly drawn) and report it.
Result: 79.8%

Task: For the compound "Cn1ncc2c1CCCN(C(=O)COc1ccccc1F)C2" , give its measured viability at 28.5 h, 10 µM value.
Result: 101%

Task: Return the recorded viability at 28.5 h, 10 µM value; entry: "c1cncc(COc2ccnc(N3CCCN(CCN4CCOCC4)CC3)n2)c1"
Result: 88.5%

Task: Kindly indicate its recorded viability at 28.5 h, 10 µM. Item: OC(COc1cccc2c1CCCC2)CN1CCC(O)(c2ccccc2)CC1 (stereo not drawn)
Result: 87.3%

###

- test: in vitro
- measurement_conditions: human, hela cells, % viability
measurement_kind: viability at 28.5 h, 10 µM

Before answering, review these 5 worked examples.
# compound, viability at 28.5 h, 10 µM
data = [
    ("COCCNc1nc(-c2cc(OC)c(OC)c(OC)c2)cnc1N [CBK063559]", "112%"),
    ("COc1ccc(C)cc1NC(=O)CSc1nnc(-c2ccccc2Cl)n1-c1ccccc1 [CBK267538]", "82.9%"),
    ("COc1ccc(CN2CCC(Oc3nccnc3OCc3cc(C)on3)CC2)cc1 [CBK082953T]", "93.7%"),
    ("CSc1ccc(-c2cn3ccnc3c(N3CCN(CCO)CC3)n2)cc1 [CBK066596]", "86.6%"),
    ("O=C1NC2(CCSC2)C(=O)N1Cc1noc(-c2cccs2)n1 (centres unmarked) [CBK306225]", "90.6%"),
]

Task: Return viability at 28.5 h, 10 µM (reported value) for this compound: O=C(CCc1ccccc1F)NC1CCc2nccn2C1 (centres unmarked) [CBK306124]
Result: 113%

Task: Report viability at 28.5 h, 10 µM, nothing else, for this compound: NC(=O)C1CCN(c2ccc(-c3noc([C@@H]4CCCN4Cc4cccnc4)n3)cn2)CC1 [CBK288882]
Result: 108%

Task: Look up and state reported viability at 28.5 h, 10 µM for Cc1c(C(=O)O)sc2nc(SCC(=O)Nc3ccc(OCc4ccccc4)cc3)[nH]c(=O)c12 [CBK296992]
Result: 88.5%

Task: In one line, give reported viability at 28.5 h, 10 µM of the entry Cc1occc1C(=O)Nc1nc(CC(=O)N(C)Cc2ccsc2)cs1 [CBK305631] .
Result: 83.8%

###

- test: in vitro
- measurement_conditions: human, hela cells, % viability
Listing of recorded viability at 28.5 h, 10 µM by entry.
Give just the number in %; leave the unit off.

# structure_notation, viability at 28.5 h, 10 µM [%]
records = [
    ("CCNC(=S)N1CCN(CCNC=C2C(=O)CC(C)(C)CC2=O)CC1", 90.1),
    ("CC(C)Cn1c(=O)[nH]c2ncc(-c3ccco3)nc21", 91.9),
    ("CCCCOc1ccc(C(=O)N/C(=C/c2ccco2)C(=O)Nc2cccc(C(=O)O)c2)cc1", 92.4),
]

We next turn to a different compound, shown below.
Task: Using the record for "Cc1ccn(-c2ccc(N3CCC4(CC3)OCCO4)nn2)n1" , state its measured viability at 28.5 h, 10 µM.
Result: 91.5
